Reported pIC50 values are given for each entry in this list.
- study target: glutathione S-transferase (GST)-linked full-length human Syk protein (Homo sapiens, UniProt P43405)
pIC50: −log10 of the molar value.

For orientation, consider the following solved cases.
>>> print(df.to_string())
                                   compound  result_type  observed_measurement
0  NC(=O)c1cc(F)c(N[C@@H]2CCCC[C@@H]2N)nc1Nc1cnc(OC(F)F)c(-n2nccn2)c1 [Example 2-238]        pIC50          7.30 to 8.00
1  Cc1cccc(Nc2nc(N[C@@H]3CCCC[C@@H]3N)c(F)cc2C(N)=O)c1 [Example 2-434]        pIC50                > 8.00
2  CCn1ncc2c(Nc3nc(N[C@H](COC)[C@H](C)N)c(F)cc3C(N)=O)cccc21 [Example 2-122]        pIC50          7.30 to 8.00
3  COCCn1ncc2cc(Nc3nc(N[C@H](c4ccc(OC)cc4)[C@H](C)N)c(F)cc3C(N)=O)ccc21 [Example 2-455]        pIC50                > 8.00
4  C[C@H](N)[C@H](Nc1nc(Nc2ccc3c(c2)c(N(C)C)nn3C)c(C(N)=O)cc1F)c1cccs1 [Example 2-510]        pIC50                > 8.00
5  C[C@H](N)[C@@H](CC1CC1)Nc1nc(Nc2ccc3nn(C)c(N(C)C)c3c2)c(C(N)=O)cc1F [Example 2-14]        pIC50          7.30 to 8.00
6  CCCC[C@@H](Nc1nc(Nc2cnc3c(c2)c(C)nn3C)c(C(N)=O)cc1F)[C@H](C)N [Example 2-244]        pIC50          7.30 to 8.00
7  Cc1ccc(Nc2nc(N[C@@H]3CCCC[C@@H]3N)c(F)cc2C(N)=O)cc1Cl [Example 2-445]        pIC50                > 8.00

Query (compound): C[C@H](N)[C@H](Nc1nc(Nc2cc(N3CCOCC3)ncc2F)c(C(N)=O)cc1F)C1CC1 [Example 2-234] ; field requested: pIC50
7.00 to 7.30

Fill in the blank: the reported pIC50 of CCn1ncc2c(Nc3nc(N[C@@H](CN)CC(C)C)c(F)cc3C(N)=O)cncc21 [Example 2-405] is ____.
> 8.00

Every entry's value here was drawn from patent US9051310B2.
